Source of measurements: patent US12264134B2

Below, each of the molecules is paired with its reported pIC50 value.
- TGT: UniProt:P14902
- EXPERIMENT SUMMARY: IDO1 Cellular Assay in HeLa Cells Stimulated with IFNγ
- Type: cell-based
- REPORTED CONDITIONS: read-out: HeLa Cell Potency, IC50
pIC50 is a log-scale quantity: -log10 of the concentration expressed in molar.

Given item Cc1cccc(N2CCN(C(=O)Cn3nc(C(=O)N4CC[C@H](N)[C@H](F)C4)c4c3CCC4)CC2)c1C , the value recorded as its pIC50 is 7.14

// Cc1cccc(N2CCN(C(=O)Cn3nc(C(=O)N4CCC(O)(CF)C4)c4c3CCC4)CC2)c1C (single isomer, unassigned) [Example 482] : pIC50 value = 7.65

The molecule listed as Cc1cccc(N2CCN(C(=O)Cn3nc(C(=O)N4CCC5(CC4)COC(CO)C5)c4c3C[C@H]3C[C@@H]43)CC2)c1C (stereo partly drawn) [Example 275] shows pIC50 equal to 9.10

# pIC50 of Cc1cccc(N2CCN(C(=O)Cn3nc(C(=O)N4CCC(O)CC4)c4c3CC(F)(F)CC4)CC2)c1C = 8.29

pIC50 reading for Cc1cccc(N2CCN(C(=O)Cn3nc(C(=O)N4CCC5(CC4)CC5(F)F)c4c3CCC4)CC2)c1C : 8.27

Recorded pIC50 (molecule Cc1cccc(N2CCN(C(=O)Cn3nc(C(=O)N4CC[C@@H](O)[C@@H](F)C4)c4c3CCCC4)CC2)c1Cl ): 8.76

Entry Cc1c(Cl)ccnc1N1CCN(C(=O)Cn2nc(C(=O)N3CCC(O)CC3)c3c2CCCC3)C2(CC2)C1 , pIC50 reported as 8.31

----------
- TGT: IDO1 (Homo sapiens)
- EXPERIMENT SUMMARY: IDO1 Cellular Assay in HeLa Cells Stimulated with IFNγ
- Type: cell-based
- REPORTED CONDITIONS: read-out: HeLa Cell Potency, IC50
- Description: IDO1 Cellular Assay in HeLa Cells Stimulated with IFNγ HeLa cells were cultured in complete HeLa culture medium (90% EMEM, 10% heat-inactivated fetal bovine serum) and expanded to about 1×10^9 cells. […] Frozen HeLa cells were thawed and transferred into HeLa assay medium (99% complete HeLa culture medium, 1% Pen/Strep) with 20 mL medium/vial of cells. […] The cells were then counted and adjusted to a density of 2×10^5 cells/mL in HeLa assay medium. […]
MEASURE: pIC50
Just the number, please; pIC50 means minus log10 of the concentration in mol/L.

// solved cases for pIC50 follow
molecule="Cc1cccc(N2CCN(C(=O)Cn3nc(C(=O)N4C[C@@H](C)O[C@@H](C)C4)c4c3[C@@H]3C[C@@H]3C4)CC2)c1C [Example 296]" test_result=8.10
molecule="Cc1cccc(N2CCN(C(=O)Cn3nc(C(=O)N4CCC(O)C(F)C4)c4c3CCC4)C3(CC3)C2)c1C (single isomer, unassigned) [Example 396]" test_result=8.39

Moving on to the next molecule.
Cc1cccc(N2CCN(C(=O)Cn3nc(C(=O)N4CCCC(NC(N)=O)C4)c4c3C[C@H]3C[C@@H]43)CC2)c1C (some centres unmarked) [Example 272] has a reported pIC50 of 7.79

----------
- TGT: IDO1 (Homo sapiens, UniProt P14902)
- Sequence (P14902 whole entry): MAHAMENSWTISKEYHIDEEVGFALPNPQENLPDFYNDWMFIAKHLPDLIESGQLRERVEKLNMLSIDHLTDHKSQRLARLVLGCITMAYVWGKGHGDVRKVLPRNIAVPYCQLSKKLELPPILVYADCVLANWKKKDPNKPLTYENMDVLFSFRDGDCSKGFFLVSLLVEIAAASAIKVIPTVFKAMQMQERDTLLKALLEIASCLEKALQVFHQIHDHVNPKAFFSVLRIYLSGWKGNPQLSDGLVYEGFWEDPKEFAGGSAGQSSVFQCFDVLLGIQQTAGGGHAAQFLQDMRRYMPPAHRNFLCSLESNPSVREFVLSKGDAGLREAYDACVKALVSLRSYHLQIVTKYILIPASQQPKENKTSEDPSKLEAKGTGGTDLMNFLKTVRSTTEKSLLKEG
- EXPERIMENT SUMMARY: IDO1 Cellular Assay in HeLa Cells Stimulated with IFNγ
- Assay type: cell-based
- REPORTED CONDITIONS: read-out: HeLa Cell Potency, IC50
pIC50: −log10 of the molar value.
Use 8 as the dividing line for pIC50, with the line itself on the Criterion met side and lower values as Criterion not met.

Worked set:
compound=COC(=O)N1CCN(C(=O)c2nn(CC(=O)N3CCN(c4cccc(C)c4C)CC3)c3c2CCC3)CC1 group="Criterion met"
compound=Cc1c(C(F)F)cccc1N1CCN(C(=O)Cn2nc(C(=O)N3CC[C@H](O)[C@H](F)C3)c3c2C[C@H]2C[C@@H]32)CC1 group="Criterion met"
compound=Cc1cccc(N2CCN(C(=O)Cn3nc(C(=O)N4CC[C@@H](O)[C@H](F)C4)c4c3C[C@H]3C[C@@H]43)CC2)c1C group="Criterion met"
compound=Cc1c(F)ccc(N2CCN(C(=O)Cn3nc(C(=O)N4CCC(O)CC4)c4c3CCCC4)CC2)c1C group="Criterion met"
compound=Cc1c(Cl)cccc1N1CCN(C(=O)Cn2nc(C(=O)N3CC[C@H](N)[C@@H](F)C3)c3c2C[C@H]2C[C@@H]32)C2(CC2)C1 group="Criterion met"

Okay, next one:
Query :: Confirm if pIC50 reported for the compound CC(=O)NC1CCN(C(=O)c2nn(CC(=O)N3CCN(c4cccc(C)c4C)CC3)c3c2CCC3)C1 (centres unmarked) is 8 or above.
Result :: Criterion not met

----------
- TGT: IDO1 (Homo sapiens, UniProt P14902)
- EXPERIMENT SUMMARY: IDO1 Cellular Assay in HeLa Cells Stimulated with IFNγ
- Format: cell-based
- REPORTED CONDITIONS: read-out: HeLa Cell Potency, IC50
MEASURE: pIC50
Interpret pIC50 as the negative base-10 log of the concentration measured in mol/L.

Worked cases, pIC50 given:
molecule="Cc1cccc(N2CCN(C(=O)Cn3nc(C(=O)N4CCC(O)CC4)c4c3CCC4C(F)F)CC2)c1C (racemic) [Example 18]" test_result=7.03
molecule="Cc1cccc(N2CCN(C(=O)Cn3nc(C(=O)N4CCCC(N5CCCC5=O)C4)c4c3C[C@H]3C[C@@H]43)CC2)c1C (stereo partly shown)" test_result=8.41
molecule=Cc1c(N2CCN(C(=O)Cn3nc(C(=O)N4CCC(O)(CF)CC4)c4c3CCC4)CC2)ccc(F)c1Cl test_result=8.27

Per the records, this molecule ( Cc1cccc(N2CCN(C(=O)Cn3nc(C(=O)N4CCN5CCCC[C@H]5C4)c4c3CCC4)CC2)c1C ) has pIC50 equal to 8.53

----------
Each item that follows carries a reported IC50.
- TGT: IDO1 (Homo sapiens)
- EXPERIMENT SUMMARY: IDO1 Cellular Assay in HeLa Cells Stimulated with IFNγ
- Assay type: cell-based
- REPORTED CONDITIONS: read-out: HeLa Cell Potency, IC50
Output spec: scalar in nM, unitless text.

compound=Cc1cccc(N2CCN(C(=O)Cn3nc(C(=O)N4CC[C@H](O)[C@@H](F)C4)c4c3C[C@H]3C[C@@H]43)C3(CC3)C2)c1C test_result=1.93
compound=CC(=O)NC1CCN(C(=O)c2nn(CC(=O)N3CCN(c4ccc(F)c(C)c4C)CC34CC4)c3c2[C@@H]2C[C@@H]2C3)CC1 test_result=1.31
compound=Cc1cccc(N2CCN(C(=O)Cn3nc(C(=O)N4CCC5(CC4)CC(=O)N(C)C5)c4c3CCC4)CC2)c1C test_result=17.1

Lab note: next compound to report on.
Summary for this compound, Cc1cccc(N2CCN(C(=O)Cn3nc(C(=O)N4CC5C(CO)C5C4)c4c3CCC4)CC2)c1C (stereo not shown) : IC50 is 23.2

----------
Some molecules, each annotated with its measured IC50.
- TGT: IDO1 (Homo sapiens, UniProt P14902)
- EXPERIMENT SUMMARY: IDO1 Human Whole blood Assay
- Type: cell-based
- Parameters: Human whole blood was drawn in sodium heparin coated tubes from healthy internal donors; from tissue; host or cells: human whole blood from healthy donors, stimulated with LPS and IFNγ
- REPORTED CONDITIONS: LPS and IFNγ stimulated, 18 h, read-out: Human Whole Blood Potency, IC50

molecule="Cc1cccc(N2CCN(C(=O)Cn3nc(C(=O)N4CCCC4)c4c3CCC(F)C4)CC2)c1C (single isomer, unassigned) [Example 7]" test_result="934 nM"

Sure, the documented IC50 for Cc1c(Cl)cccc1N1CCN(C(=O)Cn2nc(C(=O)N3CC[C@H](N)[C@@H](F)C3)c3c2C[C@H]2C[C@@H]32)C2(CC2)C1 [Example 315] is 272 nM

Query CC(=O)NC1CCN(C(=O)c2nn(CC(=O)N3CCN(c4cccc(C)c4C)CC3)c3c2CCC3)CC1 [Example 128] yields IC50 of 192 nM

// sample Cc1cccc(N2CCN(C(=O)Cn3nc(C(=O)N4CCC(O)C(F)C4)c4c3CCC4)C3(CC3)C2)c1C (single isomer, unassigned) [Example 395] , its IC50 was 4160 nM

// field: IC50; key: Cc1cccc(N2CCN(C(=O)Cn3nc(C(=O)N4CCC(O)(CF)CC4)c4c3CCCC4)CC2)c1C [Example 477] ; value = 61 nM

----------
- TGT: IDO1 (Homo sapiens, UniProt P14902)
- EXPERIMENT SUMMARY: IDO1 Human Whole blood Assay
- Assay type: cell-based
- Set-up: Human whole blood was drawn in sodium heparin coated tubes from healthy internal donors; from tissue; host or cells: human whole blood from healthy donors, stimulated with LPS and IFNγ
- REPORTED CONDITIONS: LPS and IFNγ stimulated, 18 h, read-out: Human Whole Blood Potency, IC50
MEASURE: log10 IC50 (log10 of the value in nM)
Short version: log10 scale, IC50, nM.

The cases that follow already have their log10 IC50 on record.
compound=Cc1cccc(N2CCN(C(=O)Cn3nc(C(=O)N4CC[C@@H](O)[C@@H](F)C4)c4c3CCCC4)CC2)c1C tgt="IDO1 (Homo sapiens, UniProt P14902)" test_result=2.21
compound="Cc1cccc(N2CCN(C(=O)Cn3nc(C(=O)N4CCCC4)c4c3CCC(F)C4)CC2)c1C (single isomer, unassigned) [Example 8]" tgt="IDO1 (Homo sapiens, UniProt P14902)" test_result=3.39
compound="Cc1c(F)ccc(N2CCN(C(=O)Cn3nc(C(=O)N4CCC(O)C(CO)C4)c4c3C[C@@H]3C[C@H]43)C3(CC3)C2)c1C (stereo in doubt)" tgt="IDO1 (Homo sapiens, UniProt P14902)" test_result=2.74
compound=Cc1cccc(N2CCN(C(=O)Cn3nc(C(=O)N4CC[C@@H](O)C[C@@H]4C)c4c3CCC4)CC2)c1C tgt="IDO1 (Homo sapiens, UniProt P14902)" test_result=2.65
compound=Cc1cccc(N2CCN(C(=O)Cn3nc(C(=O)N4CC[C@@H](C(C)(C)O)C4)c4c3C[C@H]3C[C@@H]43)CC2)c1C tgt="IDO1 (Homo sapiens, UniProt P14902)" test_result=2.90

response.value for Cc1cccc(N2CCN(C(=O)Cn3nc(C(=O)N4CCC(O)C(F)C4)c4c3CCC4)C3(CC3)C2)c1C (single isomer, unassigned) [Example 328] (field: log10 IC50) = 3.62

The compound Cc1c(Cl)cccc1N1CCN(C(=O)Cn2nc(C(=O)N3CCN(C(=O)CO)CC3)c3c2CCC(F)(F)C3)CC1 showed log10 IC50 equal to 2.40

Query Cc1cccc(N2CCN(C(=O)Cn3nc(C(=O)N4C[C@@H](C)O[C@@H](C)C4)c4c3C[C@H]3C[C@@H]43)CC2)c1C yields log10 IC50 of 2.21

Short answer for Cc1cccc(N2CCN(C(=O)Cn3nc(C(=O)N4CCCC4)c4c3CCCC4)CC2)c1C : log10 IC50 was 2.74

The recorded log10 IC50 for Cc1c(F)ccc(N2CCN(C(=O)Cn3nc(C(=O)N4CC[C@H](O)[C@H](F)C4)c4c3C[C@H]3C[C@@H]43)C3(CC3)C2)c1C is 2.31

Kindly note the recorded log10 IC50 for Cc1cccc(N2CCN(C(=O)Cn3nc(C(=O)N4CCC(O)CC4)c4c3CCCC4)CC2)c1Cl , which is 2.18
